ASSAY_REMARKS: Cmax in beagle dog at 5 mg/kg, po administered via gavage as solution
Assay type: ADME, organism-based, Canis lupus familiaris
Design: dose 5 mg/kg, route oral
CONDITION_SET: in vivo
ASSAY_ENDPOINT: Cmax (nM)
Numbers only, in nM.

Recorded Cmax (compound "C=C(C)[C@@H]1CC[C@]2(NCCN3CCS(=O)(=O)CC3)CC[C@]3(C)[C@H](CC[C@@H]4[C@@]5(C)CC=C(c6ccc(C(=O)O)cc6)C(C)(C)[C@@H]5CC[C@]43C)[C@@H]12" ): 560

###

System: Human immunodeficiency virus 1
ASSAY_REMARKS: microbe, parasite or virus in culture
CONDITION_SET: Human immunodeficiency virus 1, MT2
Description: Antiviral activity against wild type HIV1 infected in human MT2 cells after 4 to 5 days by dual luciferase reporter gene assay
ASSAY_ENDPOINT: EC50 (nM)
Give bare numbers, in nM.

{"CHEM_SMILES": "C=C(C)[C@@H]1CC[C@]2(NCCN3C[C@@H]4C[C@H]3CN4S(C)(=O)=O)CC[C@]3(C)[C@H](CC[C@@H]4[C@@]5(C)CC=C(c6ccc(C(=O)O)cc6)C(C)(C)[C@@H]5CC[C@]43C)[C@@H]12", "OUTPUT_UNIT": "nM", "EC50": 2.7}
{"CHEM_SMILES": "C=C(C)[C@@H]1CC[C@]2(NCCN3CCN(S(=O)(=O)C(C)C)CC3)CC[C@]3(C)[C@H](CC[C@@H]4[C@@]5(C)CC=C(c6ccc(C(=O)O)cc6)C(C)(C)[C@@H]5CC[C@]43C)[C@@H]12", "OUTPUT_UNIT": "nM", "EC50": 5.2}
{"CHEM_SMILES": "C=C(C)[C@@H]1CC[C@]2(NCCN3CCS(=O)(=O)CC3)CC[C@]3(C)[C@H](CC[C@@H]4[C@@]5(C)CC=C(c6ccc(C(=O)O)c(F)c6)C(C)(C)[C@@H]5CC[C@]43C)[C@@H]12", "OUTPUT_UNIT": "nM", "EC50": 2.8}

Continue with the next compound.
Memo: "C=C(C)[C@@H]1CC[C@]2(NCCC3CCS(=O)(=O)CC3)CC[C@]3(C)[C@H](CC[C@@H]4[C@@]5(C)CC=C(c6ccc(C(=O)O)cc6)C(C)(C)[C@@H]5CC[C@]43C)[C@@H]12" , reported EC50: 3.7
